Numbers sourced from patent US20140005163A1.

Assay: Cellular CaCo2 permeability assay from apical to basal (A-B)
Assay type: in vitro ADME
Settings: human, Caco-2, read-out: Pe A-B (permeability)
parameter_measured: Papp A→B (×10⁻⁶ cm/s)

INSERT INTO results (smiles_record, value) VALUES
  ('CCOc1cncc(-c2ccc3ncc4c(c3c2)n(-c2cn(C)nc2C)c(=O)n4C)c1', 39.7);

[1] CNc1ncc(-c2ccc3ncc4c(c3c2)n(-c2cn(C)nc2C)c(=O)n4C)cc1Cl
[2] CCn1cc(-n2c(=O)n(C)c3cnc4ccc(-c5ccc(NC)nc5)cc4c32)c(C)n1
Could you check which of 1 and 2 has a smaller value for Papp A→B? # reply format: chosen label
2
(2: 15.9 ×10⁻⁶ cm/s, 1: 29.1 ×10⁻⁶ cm/s)
